- tested-system: Rat M4 (Rattus norvegicus)
- Construct: expressed in transfected cells; host or cells: CHO-K1 (ATCC), stably expressing M4 and Gqi5
- Sequence (P08485 whole entry): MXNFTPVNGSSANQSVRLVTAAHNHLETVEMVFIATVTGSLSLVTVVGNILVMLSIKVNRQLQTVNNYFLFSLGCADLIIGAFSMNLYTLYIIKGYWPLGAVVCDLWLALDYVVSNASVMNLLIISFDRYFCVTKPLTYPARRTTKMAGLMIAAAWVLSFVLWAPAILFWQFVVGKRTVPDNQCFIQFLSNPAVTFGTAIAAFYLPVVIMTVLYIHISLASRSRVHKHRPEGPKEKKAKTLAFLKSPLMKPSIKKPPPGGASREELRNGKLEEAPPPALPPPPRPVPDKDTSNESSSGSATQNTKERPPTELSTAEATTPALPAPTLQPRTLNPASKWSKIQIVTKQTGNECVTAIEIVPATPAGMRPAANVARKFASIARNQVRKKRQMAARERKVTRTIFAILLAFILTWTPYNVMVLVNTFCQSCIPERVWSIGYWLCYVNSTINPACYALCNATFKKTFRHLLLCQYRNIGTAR
- test-details: mAChR M4 cell-based functional calcium flux assay (rat M4/Gqi5/CHO cells)
- condition-parameters: cells printed in μM; decrease of the EC80 acetylcholine response
measured-property: IC50

INSERT INTO results (molecule, measured_property, assay_result) VALUES
  ('CC(CN1CCC2(CC1)CC2C(=O)Nc1ccc(-c2cc(F)ccc2Cl)nn1)C(C)(C)C (stereo not drawn)', 'IC50', '> 10 µM'),
  ('CC(=O)Nc1ccc(-c2ccc(NC[C@H]3CC34CCN(CC3CCOCC3)CC4)nn2)cc1', 'IC50', '≥ 10 µM'),
  ('Cc1cnn(C)c1-c1ccc(NC(=O)C2CC23CCN(CC(C)C(C)(C)C)CC3)nn1 (stereo not drawn)', 'IC50', '> 10 µM');
